test: caspase-3/7 activation in unprimed MEWO cells, dose response, counter-screen for Bcl2-A1 inhibitor project, cell-based, caspase-Glo luminescence, dry powder (AID 488948); conditions: MEWO unprimed cells, caspase-3/7 Glo luminescence, 3 h; at 150 µM; active compounds read high
Records with an inconclusive call do not appear.
Would you kindly list max caspase activation for each of these compounds?
Report only the number, with the unit % understood.

Provide only the value of recorded max caspase activation for COc1cccc(C(=O)C(C#N)=C(SC)SC)c1 -3.79

Provide only the value of recorded max caspase activation for CC(C)(C)n1nc(-c2ccc(Cl)cc2)c2c(N)ncnc21 4.52

Provide only the value of recorded max caspase activation for Cc1cccc(CS(=O)(=O)c2ncc(Cl)c(C(=O)Nc3nnc(C(C)C)s3)n2)c1 -3.23

Provide only the value of recorded max caspase activation for CCSc1nnc(NC(=O)c2nc(S(=O)(=O)Cc3ccc(F)cc3)ncc2Cl)s1 -5.59
